Target sequence: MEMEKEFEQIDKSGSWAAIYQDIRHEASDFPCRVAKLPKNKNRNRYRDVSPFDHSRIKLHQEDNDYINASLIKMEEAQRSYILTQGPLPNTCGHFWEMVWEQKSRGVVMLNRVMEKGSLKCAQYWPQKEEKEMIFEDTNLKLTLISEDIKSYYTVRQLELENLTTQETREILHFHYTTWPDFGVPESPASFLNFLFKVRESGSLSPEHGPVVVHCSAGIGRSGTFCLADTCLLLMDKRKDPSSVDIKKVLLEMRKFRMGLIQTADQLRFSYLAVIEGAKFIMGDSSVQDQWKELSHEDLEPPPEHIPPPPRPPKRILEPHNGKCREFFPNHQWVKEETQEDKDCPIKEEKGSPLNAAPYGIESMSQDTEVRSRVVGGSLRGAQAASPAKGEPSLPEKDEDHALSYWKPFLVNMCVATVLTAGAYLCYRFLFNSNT
PARAMETER: IC50 (µM)

Worked set:
mol_smiles=O=Cc1coc2ccccc2c1=O parameter=IC50 reported=73
mol_smiles=O=Cc1coc2ccc(F)cc2c1=O parameter=IC50 reported=55
mol_smiles=O=Cc1coc2c(ccc3ccccc32)c1=O parameter=IC50 reported=25

[P] O=Cc1coc2ccc(Cl)cc2c1=O
[Q] Cc1cc2occ(C=O)c(=O)c2cc1Cl
Could you kindly indicate whether P or Q has the higher IC50 value? Please respond with the label that marks your chosen entry.
P
(P: 28 µM, Q: 18 µM)

---

# TARGET UNDER TEST: UniProt:P10586
# Sequence (P10586 whole entry): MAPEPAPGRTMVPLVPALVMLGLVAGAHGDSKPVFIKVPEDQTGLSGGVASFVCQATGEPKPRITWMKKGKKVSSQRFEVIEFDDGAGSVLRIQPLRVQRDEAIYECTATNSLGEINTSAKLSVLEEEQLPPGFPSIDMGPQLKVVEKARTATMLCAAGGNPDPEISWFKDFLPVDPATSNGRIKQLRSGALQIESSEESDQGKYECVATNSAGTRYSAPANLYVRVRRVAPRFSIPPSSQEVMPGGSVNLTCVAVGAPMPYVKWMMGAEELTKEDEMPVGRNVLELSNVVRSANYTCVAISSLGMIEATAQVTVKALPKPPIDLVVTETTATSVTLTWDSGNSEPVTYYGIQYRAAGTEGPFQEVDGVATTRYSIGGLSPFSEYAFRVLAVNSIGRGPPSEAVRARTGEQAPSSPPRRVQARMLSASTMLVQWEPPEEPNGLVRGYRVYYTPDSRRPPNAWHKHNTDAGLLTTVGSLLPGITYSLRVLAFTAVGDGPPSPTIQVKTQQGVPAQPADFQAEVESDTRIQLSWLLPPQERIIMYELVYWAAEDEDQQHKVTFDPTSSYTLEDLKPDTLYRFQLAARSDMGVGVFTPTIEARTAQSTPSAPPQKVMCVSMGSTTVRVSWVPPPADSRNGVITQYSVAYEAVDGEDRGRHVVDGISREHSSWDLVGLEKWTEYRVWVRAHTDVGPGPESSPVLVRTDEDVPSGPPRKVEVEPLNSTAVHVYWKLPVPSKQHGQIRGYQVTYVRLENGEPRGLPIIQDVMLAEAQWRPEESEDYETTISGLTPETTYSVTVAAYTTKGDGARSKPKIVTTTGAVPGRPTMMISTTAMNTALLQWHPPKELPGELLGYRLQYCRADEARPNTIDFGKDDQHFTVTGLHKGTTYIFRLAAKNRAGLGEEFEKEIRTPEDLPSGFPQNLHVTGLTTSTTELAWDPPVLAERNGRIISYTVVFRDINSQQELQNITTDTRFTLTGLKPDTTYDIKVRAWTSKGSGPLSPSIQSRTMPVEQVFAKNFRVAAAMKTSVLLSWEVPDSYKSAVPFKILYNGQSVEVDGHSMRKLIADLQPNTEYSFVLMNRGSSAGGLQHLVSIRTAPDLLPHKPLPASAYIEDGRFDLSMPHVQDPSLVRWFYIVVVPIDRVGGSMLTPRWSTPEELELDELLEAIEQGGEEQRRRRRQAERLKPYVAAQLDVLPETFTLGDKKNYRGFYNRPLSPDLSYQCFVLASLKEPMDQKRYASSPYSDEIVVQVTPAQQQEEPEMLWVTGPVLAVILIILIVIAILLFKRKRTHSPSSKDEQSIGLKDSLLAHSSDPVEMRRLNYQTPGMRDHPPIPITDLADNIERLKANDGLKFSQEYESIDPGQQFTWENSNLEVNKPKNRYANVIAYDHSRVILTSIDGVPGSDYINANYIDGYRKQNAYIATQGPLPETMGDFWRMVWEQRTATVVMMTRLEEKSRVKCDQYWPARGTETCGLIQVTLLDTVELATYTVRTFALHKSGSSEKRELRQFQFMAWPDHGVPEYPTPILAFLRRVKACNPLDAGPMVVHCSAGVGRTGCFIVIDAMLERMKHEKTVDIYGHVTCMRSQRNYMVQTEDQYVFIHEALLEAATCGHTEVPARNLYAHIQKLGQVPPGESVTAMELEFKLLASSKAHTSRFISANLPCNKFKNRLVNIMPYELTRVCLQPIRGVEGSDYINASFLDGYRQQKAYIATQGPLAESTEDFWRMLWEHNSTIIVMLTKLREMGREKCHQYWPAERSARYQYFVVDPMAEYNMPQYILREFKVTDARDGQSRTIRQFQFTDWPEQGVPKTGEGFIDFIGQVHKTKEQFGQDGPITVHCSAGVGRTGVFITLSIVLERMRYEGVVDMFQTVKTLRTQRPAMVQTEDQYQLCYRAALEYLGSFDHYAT
pIC50: −log10 of the molar value.
PARAMETER: pIC50

Write pIC50 of `O=Cc1coc2ccc(-c3ccccc3)cc2c1=O` ; system used: UniProt:P10586
< 3.00

---

# TARGET UNDER TEST: Tyrosine-protein phosphatase non-receptor type 2 (Homo sapiens, UniProt P17706)
# Sequence (P17706 whole entry): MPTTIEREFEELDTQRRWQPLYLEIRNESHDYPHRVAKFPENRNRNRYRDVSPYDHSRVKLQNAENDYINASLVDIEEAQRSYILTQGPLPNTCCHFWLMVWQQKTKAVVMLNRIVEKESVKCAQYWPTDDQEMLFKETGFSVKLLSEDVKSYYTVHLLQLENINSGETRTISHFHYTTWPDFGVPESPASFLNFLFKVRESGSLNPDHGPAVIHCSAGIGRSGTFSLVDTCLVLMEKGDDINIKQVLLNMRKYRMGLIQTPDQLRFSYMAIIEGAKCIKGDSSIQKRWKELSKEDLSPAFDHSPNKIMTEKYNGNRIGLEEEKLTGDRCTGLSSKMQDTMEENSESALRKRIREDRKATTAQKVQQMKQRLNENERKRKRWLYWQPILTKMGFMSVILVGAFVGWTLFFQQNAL
# METHOD: Compound was tested for selectivity against human T cell protein tyrosine phosphatase
PARAMETER: IC50 (µM)

[1] O=Cc1coc2ccc(-c3ccc(-c4ccccc4)cc3)cc2c1=O
[2] O=Cc1coc2ccc3ccccc3c2c1=O
[3] O=Cc1coc2ccc(-c3ccccc3)cc2c1=O
Sort key: IC50. Order: high to low. Scope: items listed above. Use the labels to give the requested order.
2, 3, 1
(2: 780 µM, 3: 240 µM, 1: 51 µM)

---

# TARGET UNDER TEST: Tyrosine-protein phosphatase non-receptor type 1 (Homo sapiens, UniProt P18031)
pIC50: −log10 of the molar value.
Reported pIC50 values for a set of compounds

Use the examples below as a reference point.
compound="O=C(O)c1cc(=O)c2ccccc2o1 [CHROMOCARB]" target_under_test="Tyrosine-protein phosphatase non-receptor type 1 (Homo sapiens, UniProt P18031)" parameter=pIC50 reported="< 3.00"
compound="O=C(O)c1cc2ccccc2oc1=O [COUMARIN-3-CARBOXYLIC ACID]" target_under_test="Tyrosine-protein phosphatase non-receptor type 1 (Homo sapiens, UniProt P18031)" parameter=pIC50 reported="< 3.00"

Consider the additional compound presented here.
Using the record for `Nc1oc2ccccc2c(=O)c1C=O` , state its measured pIC50.
< 3.00
